# Test system: TO-3-N3 (biotin conjugate)
# Procedure Summary: pull-down binding Z-score (relative to library population); higher = stronger binding
# Experimental Context: RNA library: Library-2
Please enter class 1 where pull-down binding Z-score is greater than or equal to 0.2, and class 0 where it is lower.

GCAGGAGCCUUAAAUAAGGCUACUAACAAUGC :: class 1
GUAGACAAUUCUAGUCUUAC [SHAPE_invitro_SARS-CoV-2_Motif_131] :: class 1
CUUCUUACUGCACCAGUGAAG [hsa-mir-5683] :: class 0
CCCAGAUGAAGGCACAGCUGGAGUGGAGUCCGCUGUUCUGAGGGGAUUCCUCAUUCUGGG [IAV_invivo_PB2_1_Motif_33+IAV_invivo_PB2_1_Motif_33] :: class 0

Query string: Has UGUGGCAGUGGCAGAGGUCGCUACA [hsa-mir-6856] a recorded pull-down binding Z-score greater than or equal to 0.2?
Result string: class 1

Query string: pull-down binding Z-score >= 0.2 for UCUUGGUGCCACCAUUGAGAACGCCAGGA [hsa-mir-492] ?
Result string: class 0

Query string: Check this sequence for pull-down binding Z-score at or above 0.2: `ACAGUAUGUCUUUUGUACUGU`
Result string: class 0

----------
For each of the sequences below, state its pull-down binding Z-score.
# Tested on: TO-3-N3-2 (biotin conjugate)
# Procedure Summary: pull-down binding Z-score (relative to library population); higher = stronger binding
# Experimental Context: RNA library: Library-2
Answers are plain numbers.

Below, each entry is followed by its recorded pull-down binding Z-score result.
GUGUGUUACCUAGAAAUAGCACU [hsa-mir-378a] :: -0.165
GCUUAUACGUGCCCUUGCU [hsa-mir-8075] :: 0.345
CCAUGUGAGUGAAGCCUGAUCAUCAUGUG [hsa-mir-8070] :: -0.318
UACUGGUUCUAUACCUUGUA [SARS-CoV-2-Conserved-Structured-4_Interval-7011-7130_Motif_3] :: -0.095
UGUUUGUGUCUAAACUAUCAAACG [hsa-mir-122] :: -0.158

// each listed sequence needs a value for pull-down binding Z-score
1. CAGAGUGUGCAUGGCAGGCU [hsa-mir-7156]
2. AGUGGAAAAAGUUCUUUUCUUCCUCU [hsa-mir-3192]
3. UCCUAUUACGGA [SHAPE_invivo_SARS-CoV-2_Motif_121]
4. GUGAUUGUCUUCCUCACUCAAUCAG [hsa-mir-4704]
5. CUUUUUGCCACCUGAGCACAGUCAGCAGUCAGCAUAAAA [hsa-mir-4275]
6. CUAGUAUGUCUCAUCCCCUACUAG [hsa-mir-151a]
7. UAGUACAUUUAUUAGUGAUGAAGUUGCGAGAGACUUGUCACUACAGUUUAAAAGACCAAUAAAUCCUACUG [SHAPE_invivo_SARS-CoV-2_Multi_21_ComplexLevel_1]

Result string:
0.342
0.895
-0.643
-0.174
0.292
-0.201
0.312

Please give pull-down binding Z-score, item by item, for the list that follows.
1. UGUUUUCUACAAAGAAAACA [SHAPE_invivo_SARS-CoV-2_Motif_122]
2. UAAAGAGUAUUCAACAUC [hsa-mir-1245b]
3. GGUUGGGGUGGGCUGCCUGUGGACCAAUC [hsa-mir-4525]
4. GUACCUCAAGCUGAUGUAGAAUGGAAGUUCUAUGAUGCACAGCCUUGUAGUGAC [SHAPE_invitro_SARS-CoV-2_Motif_348]
5. GCUUUAGUCUACUUCUUGCAGAGUAUAAACUUUGUAAGAAUAAUAAUGAGGC [SHAPE_invitro_SARS-CoV-2_Motif_467]
6. UGGUUUGUAACACAAAGGAAUUUUUAUGAACCA [SHAPE_invivo_SARS-CoV-2_Motif_466]

Result string:
[-0.34, 0.0553, 1.06, -0.203, -0.169, 0.046]

Short answer on TO-3-N3-2 (biotin conjugate) for AUGCCUGAGAAUAUAUGAAGGAGGCU [hsa-mir-204] , pull-down binding Z-score: 0.374

----------
# System: G-clamp-N3 (biotin conjugate)
# Procedure Summary: pull-down binding Z-score (relative to library population); higher = stronger binding
# Experimental Context: RNA library: Library-1 (pre-miRNA loops + repeats)
I'd appreciate it if you could supply pull-down binding Z-score values for the items below.
Numbers only.

In the examples that follow, each entry is paired with its recorded pull-down binding Z-score.
CCCAUAUGAACAUACAAUGCUAUGGA [hsa-mir-1-2] :: -0.76
CUCAAGUCCUCUAUUUCUUUGAA [hsa-mir-7978] :: -1.16
CCAUUAUUGCUACUGUUCAGCAGGUGCUGCUGGUGGUGAUGG [hsa-mir-1260b] :: -0.182
UUUGCCAUUGAAAGUAAUGGCAAA [hsa-mir-548d-2] :: 0.739
GGUCAGGUGGUGCCCUCCUUCCAUGGGUAGAGCCAGAGAUGGUGGGUUCUGGCU [hsa-mir-6131] :: 0.859

Go through the items and report each one's pull-down binding Z-score.
1. AUUGGAUGGAGUCAGGUCUCUAAU [hsa-mir-200b]
2. AGAUCCUGUCUUUCGUAAUCAGCAGCU [hsa-mir-222]
3. UGUGUGUCGCUCCGGGUCCACG [hsa-mir-574]
4. CAUUGGUGUAAAGCUGGAGACCCACUG [hsa-mir-324]

Result string:
1: 0.359; 2: -0.246; 3: 0.438; 4: 0.528

Parameter requested: pull-down binding Z-score. Apply to each item below.
1. CCCCGCGCGCGGACAGACACACGGACAAGUCCCGCCAGGGG [hsa-mir-4492]
2. GCCUCUCUGAGCAUGCAUUCCUGAGACUC [hsa-mir-5695]
3. GAAAUGUGUGGAAGAUGGCAUUUC [hsa-mir-4482]
4. GCAAGGUUGUUGGUGAUAUGGCUUCCUCUC [hsa-mir-4685]
5. GAACCCAGGGAGCCAGACUGCCUGGGUUC [hsa-mir-607]

Result string:
-0.362
-1.38
2.74
0.872
-0.0852

Quick one: give me pull-down binding Z-score for each item below, same order please.
1. AUUUGCCAUCACCUUUACCUUUAAUGGCAAAA [hsa-mir-548av]
2. CAUGCGCUAUCUCUGUGUCGUAUG [hsa-mir-380]
3. UGCUGUGAGCUAGCCAGCAG [hsa-mir-5693]
4. AGAUCUGUCUCUGAUUGUUUCCAAGAUCU [hsa-mir-6888]
5. GUUCAGAGUCUGUUUUUGUCUAGC [hsa-mir-29c]
6. AGCAUCUGAAUGGGUACAGUUGUUGU [hsa-mir-6818]
7. GAAGGGAAGCUGGGAACCUGACUGCCUC [hsa-mir-6867]

Result string:
1: -0.985; 2: -0.269; 3: -0.44; 4: -0.781; 5: -0.124; 6: -0.405; 7: -0.151

Below are some sequences; for each one, tell me its pull-down binding Z-score.
1. UAUUGCAAAGAUUUUCAAUA [hsa-mir-3915]
2. GCGGGGAACGAGGCCGUCGGCCAUUUUGUG [hsa-mir-632]
3. GUGUUCACACAUAAUGUGUACACCAUGUGUGUACAC [hsa-mir-5692b]
4. GCGUCGCUUCUCCCUAAUGUUGCC [hsa-mir-6781]
5. CUUAGUAGGUGAUAGCAUGACUGAC [hsa-mir-5002]
6. CUUGAUUUAAUGUCUAUACAAUUAAG [hsa-mir-124-3]

Result string:
[-0.191, 1.04, -0.31, -0.106, 1.66, -0.412]

Value sought for every listed sequence: pull-down binding Z-score.
1. CCCACCCUGAGUUUUGGUGGG [hsa-mir-6508]
2. UGCUGUUGCUGUGAAAGCUGA [hsa-mir-6823]
3. CACACACAAUCACCAUGUG [hsa-mir-3118-1]
4. GAGGUUGCAGUGAGCCAAGAUCGUG [hsa-mir-4459]
5. UUUGCCAUUAAAAGUAAUGCGGCCAA [hsa-mir-548o-2]

Result string:
1: -0.873; 2: -0.619; 3: -0.57; 4: 2.18; 5: -1.43

Report pull-down binding Z-score for every entry below.
1. CAAUCAUGUAUAAUUAAAUUUGAUUG [hsa-mir-514a-1]
2. CGGACGUUGCUCUCUACCCCG [hsa-mir-1247]
3. UGAACAGUGAUUGGUUUCCGCUUUGUUCA [hsa-mir-27b]
4. CUUUGGUGGCUAUGGUUGACUGGGCCACUCAGAG [hsa-mir-4468]
5. UGCUGUGCUGUGCUGAGCAGGGCUGAGCUG [hsa-mir-4539]

Result string:
1: 0.528; 2: -0.101; 3: -0.672; 4: 2.29; 5: 0.347

Return reported pull-down binding Z-score values for all items listed beneath this line.
1. CUGCAGAACAUUGCAG [hsa-mir-4310]
2. GUUGUUGUGAGCAAUAGUAAGGAAGCAAU [hsa-mir-34a]
3. GUCAUUACUUUCAAUAGC [hsa-mir-548p]
4. GGAGCCUUCCCCAGAGGAGUCAGGCC [hsa-mir-4312]
5. UCACUGCUGCUGGCGCCCUGA [hsa-mir-943]
6. GGGAGUGGUUCCAUCACGCCUCCUCAC [hsa-mir-483]

Result string:
1. 0.0291
2. 0.984
3. 0.0268
4. 0.386
5. -0.764
6. -0.668

Batch: pull-down binding Z-score for all items listed.
1. CACAAGACUAGGCUUCCCUGUG [hsa-mir-3152]
2. UUUGUAUUGUGGUUCAGUACCAUGCAAA [hsa-mir-6507]

Result string:
1: -0.785; 2: -0.552
